Test: antimalarial activity against Dd2 strain (AID 2302)
Conditions: P. falciparum Dd2 in RBCs, LDH growth readout, 72 h; at 2 µM; hits give high values
Tag: rule met if measured growth inhibition is not below 30%, rule not met if it is.

NC(=O)c1ccc(C(=O)Nc2cccc(-c3ccc(-c4nc5ccc(C(F)(F)F)cc5[nH]4)cc3)c2)cc1 = rule met

Inquiry: Is it the case that c1ccc(CN2CCC(NCc3ccc(-c4cncc5ccccc45)cc3)CC2)cc1 has growth inhibition reaching or exceeding 30%?
Reply text: rule not met

Inquiry: Check this molecule for growth inhibition at or above 30%: CCCN1CCN(c2ccccc2NS(=O)(=O)c2ccc(C(=O)Nc3ccc(Cl)cc3)cc2)CC1
Reply text: rule not met

Inquiry: Tell me whether growth inhibition is at least 30% here: CN(C)c1ccc(-c2ccc(C(=O)NC3CCN(Cc4ccc(F)cc4)CC3)s2)cc1
Reply text: rule not met

Inquiry: Item CCN(CC)C(=S)N=Nc1c(O)[nH]c2c(C)cccc12 with growth inhibition of 30% or above?
Reply text: rule met

Inquiry: Evaluate CCc1cn2c3c(cc(C(=O)N[C@@H](Cc4ccccc4)[C@H](O)CNC4CCOCC4)cc13)N(CC(F)(F)F)S(=O)(=O)CC2 : growth inhibition at minimum 30%?
Reply text: rule met

Inquiry: Check this molecule for growth inhibition at or above 30%: OCCN1CCN(C2Cc3ccc(F)cc3Sc3ccc(Cl)cc32)CC1 (stereo not drawn)
Reply text: rule not met

Inquiry: Assess whether reported growth inhibition for CCN(CC)CCN(Cc1ccc(-c2ccc(C(F)(F)F)cc2)cc1)C(=O)Cn1c(CCc2cc(F)cc(F)c2)nc(=O)c2ccccc21 sits at 30% or higher.
Reply text: rule met
